Source listed as PubChem BioAssay (NCI).

Tested on: SNB-78 CNS
test.description: NCI tumour cell line growth inhibition, 48 h
Entries and their TGI
assay.readout: TGI

compound | val
COC(=O)C1=CC[C@@H]2C(C(=O)O)=CO[C@@H](OC3OC(CO)C(O)C(O)C3O)[C@H]12 (stereo not given in full) | > 178 µM
CN(c1ccccc1)C(c1ccccc1)C(O)c1ccccc1 (stereo not given) | 59.6 µM
CCOC(=O)C(C)c1cc(C2(C)OCCO2)c(C)o1 (stereo not given) | > 100 µM
COc1cc2[nH]c(-c3cccc(N(C)C)c3)cc(=O)c2cc1OC | > 100 µM
C[C@]12CCC(=O)C(O)=C1CC[C@@H]1[C@@H]2CC[C@]2(C)C(=O)CC[C@@H]12 | > 100 µM

---

Tested on: RXF 393 renal
test.description: NCI tumour cell line growth inhibition, 48 h
Each record here notes measured log10 TGI.
assay.readout: log10 TGI (log10 of the value in µM)

compound | target | log10 TGI
O=[N+]([O-])C(=C(N1CCOCC1)N1CCOCC1)/C(Cl)=C(\Cl)[N+](=O)[O-] | RXF 393 renal | 0.59
CN(C)Cc1ccc(C(=O)Nc2ccc3ncnc(Nc4ccc(Oc5cccc(F)c5)c(Cl)c4)c3c2)cc1 | RXF 393 renal | 0.48
CCSc1nc(N=Cc2cccs2)c2cn[nH]c2n1 | RXF 393 renal | 0.89
O=C1/C(=C\c2ccc(-c3ccc(Cl)cc3Cl)o2)SC2N=C(COc3ccc(Cl)cc3)NN12 (stereo not drawn) | RXF 393 renal | 1.94
CC(=O)CCC[C@@H](C)[C@@H]1O[C@H]([C@@]2(C)CCC(=O)O2)C[C@H]2C(CSc3ccccc3)C(=O)O[C@@H]12 (stereo partly drawn) | RXF 393 renal | 1.20
CC(C)CC1c2[nH]c3ccccc3c2C[C@H]2C(=O)NC(CCC(=O)OC(C)(C)C)C(=O)N12 (stereo partly drawn) | RXF 393 renal | 1.86
Cc1ccccc1N(C)S(=O)(=O)c1ccccc1[N+](=O)[O-] | RXF 393 renal | 1.92
OC1CC(O)c2c(Cl)sc(Cl)c21 (stereo not drawn) | RXF 393 renal | 1.06
C=C1C(=O)OC2CC3(CO3)C3C(O)C(O)CC3(C)CC12 (stereo not drawn) | RXF 393 renal | 1.50
O=[N+]([O-])/C=C/c1c[nH]c2ccccc12 | RXF 393 renal | 1.55
O=C1c2ccccc2-c2c1c1ccccc1c(=O)n2CCNCCNCCn1c2c(c3ccccc3c1=O)C(=O)c1ccccc1-2 | RXF 393 renal | 1.01
O=C(Oc1ccc(CCl)cc1)c1ccccc1 | RXF 393 renal | -0.48
Cc1ccc2c(N)c(C(=O)N[C@H]3CCc4cc(N5CC6CCC(C5)N6)ccc4C3)sc2n1 | RXF 393 renal | -0.16

---

Test system: MDA-N
test.description: NCI tumour cell line growth inhibition, 48 h

molecule | TGI
CCOC(=O)n1cncc1CC(NC(=O)Cc1c(C(=O)C=C(C)C)[nH]c2ccccc12)C(=O)OC (stereo not drawn) | 84.3 µM
COC(=O)[C@H](Cc1ccccc1)NC(=O)N1CCN(C(=O)N[C@@H](Cc2ccccc2)C(=O)OC)CCN(C(=O)N[C@@H](Cc2ccccc2)C(=O)OC)CC1 | > 100 µM
Cc1ccc(S(=O)(=O)NNC(=S)Nc2cccc3ccccc23)cc1 | > 100 µM
N#CS/C(Cl)=C(/C(Cl)=C(Cl)Cl)[N+](=O)[O-] | > 100 µM
NC1=NC(OCC2(CO)CCC2)C=C(NCC2(CO)CCC2)N1 (stereo not drawn) | > 100 µM
O=C(Cc1ccccc1)c1ccc2[nH]c(=O)oc2c1 | > 100 µM
CCOC(CN=c1nc(N(C)C)ss1)OCC | 24.8 µM
CC(C)CCC[C@@H](C)C1CCC2[C@@H]3CCC4CC(CCC=C(c5cc(Cl)c(OC(=O)c6ccccc6)c(C(=O)O)c5)c5cc(Cl)c(OC(=O)c6ccccc6)c(C(=O)O)c5)CC[C@]4(C)C3CC[C@@]21C (stereo partly drawn) | > 100 µM
O=C1CCCc2cc3c(cc21)CCC3C(=O)O (stereo not drawn) | > 100 µM
N#C/C=C1\C=CC(O)C(O)C1OC1OC(CO)C(O)C(O)C1O (stereo not drawn) | > 100 µM
O=C(O)CN1CCN(CC(=O)O)CCN(CC(=O)O)CCN(CC(=O)O)CC1 | > 100 µM
C=CCOCn1ccc(=O)[nH]c1=O | > 100 µM
C[N+]1(C)CCC(C#N)(c2ccccc2)CC1 | > 100 µM

---

Test system: A498 renal
test.description: NCI tumour cell line growth inhibition, 48 h; in the data active = GI50 below about 0.43 µM; inactive = the rest
Labels: true (1) = active, false (0) = inactive

molecule | discrete.label
O=C1c2ccccc2-c2c1c1ccccc1c(=O)n2CCCN1CCOCC1 | false (0)
COc1ccc(-c2nc(-c3cn(C)c4ncccc34)cs2)cc1 | false (0)
S=C(N/N=C/c1ccccn1)Nc1ccccn1 | false (0)
S=C(Nc1ccc(Cl)cc1)Nc1ccc(-c2nc3ccccc3[nH]2)cc1 | false (0)
Cc1ccc2c(N)c(C(=O)N[C@H]3CCc4cc(N5CC6CCC(C5)N6)ccc4C3)sc2n1 | false (0)
O=C1C=Cc2ccccc2/C1=C/c1[nH]c(=O)[nH]c1O | false (0)
C[N+](C)(CCCCCC[N+](C)(C)CCCN1C(=O)c2cc3ccccc3cc2C1=O)CCCN1C(=O)c2ccccc2C1=O | false (0)
COc1cc(/C=C/C(=O)c2ccc(Cl)cc2)ccc1OS(=O)(=O)c1ccc(C)cc1 | false (0)
C[C@H]1CCC/C=C/[C@@H]2C[C@H](O)C[C@H]2[C@H](O)[C@@H](S(=O)CCN(C)C)CC(=O)O1 (stereo not given in full) | true (1)
O=c1cc(-c2ccccc2)nc2n1CCN2Cc1ccccc1 | false (0)

---

Test system: HCT-15 colon
test.description: NCI tumour cell line growth inhibition, 48 h
The label depends only on TGI: Condition met if it is at least 30 µM, Condition not met if it is smaller.

compound | discrete.label
CC1=C(OC2OC(CO)C(O)C(O)C2O)C(=O)C[C@H]2C1=CC[C@@H]1[C@@]2(C)C(=O)C[C@]2(C)[C@@H]([C@@](C)(O)C(=O)CCC(C)(C)O)[C@H](O)C[C@@]12C (stereo partly specified) | Condition met
COC[n+]1cc2cc(OC)c(OC)cc2c2ccc3cc(OC)c(OC)cc3c21 | Condition met
CCOC(CN=c1nc(N(C)C)ss1)OCC | Condition met
COC(=O)Nc1nc2ccccc2c(=O)[nH]1 | Condition met
O=C1CCCC2=C1CC1=C(CCCC1=O)N2c1cccc2ccccc12 | Condition met
CC(O)C(O)C(N)CC=O (stereo unspecified) | Condition met
Fc1ccc(-c2ccc(-c3nnc(-c4cc(F)c(Cl)cc4Cl)o3)o2)cc1Cl | Condition met
Cc1cc2c(s1)C(=O)c1sccc1C2=O | Condition not met
CC(=O)/C=C/c1ccc(C2CC(C)=Nc3c(ccc4c3C(=O)c3ccccc3C4=O)N2)cc1 (stereo unspecified) | Condition met
CCOC(=O)CCC(NC(=O)c1ccc(Nc2nc3cc(C(F)(F)F)ccc3nc2-c2ccccc2)cc1)C(=O)OCC (stereo unspecified) | Condition met
Cc1sc2nc3n(c(=O)c2c1C)N=C(c1ccc(Cl)cc1)CS3 | Condition met
CC(=O)OC(C)(C)/C=C/C(=O)[C@](C)(O)[C@H]1[C@H](O)C[C@@]2(C)[C@@H]3CC=C4[C@@H](C[C@H](O)C(=O)C4(C)C)[C@]3(C)C(=O)C[C@]12C | Condition not met
CC1(C)OCC(CO)(Nc2nc(N3CC3)nc(N3CC3)n2)CO1 | Condition met
CCOC(=O)C(C)c1cc(C2(C)OCCO2)c(C)o1 (stereo unspecified) | Condition met
CC(=O)OCC1OC(n2c(=O)n(-c3ccccc3)c(=O)c3ccccc32)C(OC(C)=O)C(OC(C)=O)C1OC(C)=O (stereo unspecified) | Condition met
CC1NC(/C(=C/c2ccccc2O)NC(=O)c2ccccc2)OC1=O (stereo unspecified) | Condition met
COC(=O)N/N=C/c1oc(-c2cccc([N+](=O)[O-])c2)c(-c2cccc([N+](=O)[O-])c2)c1[N+](=O)[O-] | Condition met
COc1cc(-c2coc3c(OC)c(OC4OC(CO)C(O)C(O)C4O)c(OC)cc3c2=O)cc(OC)c1C (stereo unspecified) | Condition not met
COC(=O)C1(O)c2ccccc2N=C2C(=O)c3ccccc3N21 (stereo unspecified) | Condition met
CCN(CC)Cc1cc(Nc2c3ccccc3nc3c2[nH]c2ccccc23)ccc1O | Condition not met
C=C1C(=O)C23CC1C[C@H](OC(C)=O)C2C1(C)C(OC(C)=O)C[C@H](O)C(C)(C)[C@H]1C(O)[C@@H]3OC(C)=O (stereo partly specified) | Condition not met
COC12C=CC(CC1)C1C(=O)c3c(C)c(C)n(C)c3C(=O)C12 (stereo unspecified) | Condition met
O=C([CH-]C(=O)c1ccccc1)c1ccccc1.O=C([CH-]C(=O)c1ccccc1)c1ccccc1.[Nd+3].[OH-].[OH3+] | Condition met
Cc1ccc(S(=O)(=O)NNC(=S)Nc2cccc3ccccc23)cc1 | Condition met
CCOC(=O)Oc1c(OC)cc(C(=O)O[C@@H]2C[C@@H]3CN4CCc5c([nH]c6cc(OC)ccc56)[C@H]4C[C@@H]3[C@H](C(=O)OC)[C@H]2OC)cc1OC | Condition not met
CC(=O)CCC[C@@H](C)[C@@H]1O[C@H]([C@@]2(C)CCC(=O)O2)C[C@H]2C(CSc3ccccc3)C(=O)O[C@@H]12 (stereo partly specified) | Condition met
CC(=O)OCC1OC(O[C@@H]2c3c(O)c4c(c(O)c3C3=C(NN(c5ccc([N+](=O)[O-])cc5[N+](=O)[O-])[Se]3=O)[C@@]2(C)O)C(=O)c2ccccc2C4=O)C(OC(C)=O)C(OC(C)=O)C1OC(C)=O (stereo partly specified) | Condition not met
CC(C)(C)[C@H]1CO[C@]2(C)[C@@H]3C[C@@H]3C(=O)N12 | Condition met
Cc1cc(C)nc(Nc2nc3ccc([N+](=O)[O-])cc3[nH]2)n1 | Condition met
C=C1C(=O)O[C@H]2[C@H]1CC/C(Cn1cc(-c3ccccc3)nn1)=C\CC[C@@]1(C)O[C@@H]21 | Condition not met
CC1=Cc2cc3[n-]c(cc4nc(cc5[n-]c(cc1n2)cc5C)C(C)=C4CCC(=O)O)c(CCC(=O)O)c3C.[Pd+2] | Condition met
